Test system: U251 CNS
Experiment: NCI-60 one-dose screen, 48 h
Settings: 10 µM unless noted
Compounds without any hit were thinned out: in the full panel of roughly 83,000, 20% have a hit. The source made the active and inactive calls. Rule for the calls: active = growth percent below 10; inactive = the rest.
Reply using exactly one outcome from active, inactive

// param item: COc1cc(NC(=O)CSc2nnc(-c3ccc(-c4nc5ccc(Cl)cc5[nH]4)cc3)o2)cc(OC)c1OC ; yields the recorded call
inactive

Called result for O=C(c1cc2cc(OCCCN3CCC3)ccc2[nH]1)N1C[C@@H](CCl)c2c1cc(OCc1ccccc1)c1ccccc21
active

How did this test come out for Cc1cccc(C)c1Nc1nnc(-c2c[nH]c3ccccc23)o1 ?
inactive

Kindly provide the recorded test outcome for the following compound: CC(C)C[C@H](NC(=O)CNC(=O)C[C@H]1O[C@@H]2OC3(C)CC[C@H]4[C@H](C)CC[C@@H]([C@H]1C)[C@@]24O3)B(O)O
inactive

###

Give measured growth for each item. Keep answers brief.
Test system: IGROV1 ovarian
Experiment: NCI-60 one-dose screen, 48 h (100 = growth as untreated, 0 = no growth, -100 = all killed)
Details: 10 µM unless noted
This is part of a sample that, as a whole, favours compounds with a hit. Of some 83,000 tested, about 20% had one in any assay.
State the answer as a number, implicitly in %.

# return recorded growth for entry CC1=C(C(=O)Nc2ccccc2)C(c2cccc3ccccc23)n2c(nc3ccccc32)N1 (stereo not drawn)
68

Query growth for COc1ccc(/C=C/c2nc3ccccc3n3c(-c4cccc([N+](=O)[O-])c4)nnc23)cc1
-69

Assign growth to the following record: CCOC(=O)c1ccc(NC(=S)NC(=O)c2ccc(NC(=O)C(C)C)cc2OC)cc1
64.5

Item N#Cc1cc(-c2ccnc(Nc3ccc(N4CCN(C5COC5)CC4)cc3)n2)ccc1N1CCCC1 : provide growth
55.3

Please indicate growth recorded for O=C(Nc1nc2ccc([N+](=O)[O-])cc2s1)Nc1ccccc1F
21.7

Give recorded growth. Fc1ccc(Nc2nnc(-c3c[nH]c4ccccc34)o2)cc1
50.8

Look up growth of O=C(c1ccc(O)cc1)C1[C@H](c2ccc(Cl)cc2)[C@@H](c2ccccc2)NC12C(=O)Nc1ccccc12 (stereo partly drawn) and report it.
3.49

Consider the compound Fc1ccc(F)c(CNc2nc(SCCN3CCOCC3)nc3c2cnn3CC(Cl)c2ccc(Br)cc2)c1 (stereo not drawn) . State its measured growth.
45.6

Please look at this compound and report its growth: Cc1cc(C(NC(=O)C2CC3(CC(Nc4cccc5c4C(=O)N(C4CCC(=O)NC4=O)C5=O)C3)C2)c2ccc3c(c2)OC(F)(F)O3)c(O)c2ncccc12 (stereo not drawn)
6

Retrieve growth measured for O=C1Nc2cc(-c3ccc(NS(=O)(=O)c4ccc(-c5ccccc5)cc4)cc3)ccc2/C1=C/c1ccc[nH]1 and print it.
73

Specify measured growth for O=C(Nc1ccc(-c2ccc3c(c2)NC(=O)/C3=C\c2ccc[nH]2)cc1)Nc1ccc(Cl)c(C(F)(F)F)c1 .
61.7

Give recorded growth. CCCSc1nnc(-c2c(C)nc3sccn23)o1
83.8

Item NS(=O)(=O)c1ccc(Nc2nc(SCC(=O)c3ccc(F)cc3)nc3ccccc23)cc1 : provide growth
46.4

Supply reported growth belonging to this compound: Nc1nn2c(-c3cc4cc(Br)ccc4oc3=O)ccnc2c1N=Nc1ccccc1
13.1

For O=C(NNC(=S)NC(=O)c1ccccc1)c1ccc(OCc2nc3ccc(Cl)cc3[nH]2)cc1 , write its growth.
-46.5

Return reported growth. Input compound: COc1cccc2nc(Nc3cccc(NC(=O)c4ccc(CN5CCN(C)CC5)c(C(F)(F)F)c4)c3)ccc12
-87.1

Note growth for the compound shown: Cn1cc(-c2cc3nc(-c4c[nH]c5ccccc45)cc(N)n3n2)c2ccccc21
-77.5

Please report growth for the following compound: CCOc1ccccc1[C@H]1C(C(=O)c2ccc(Cl)cc2)C2(N[C@@H]1c1ccccc1)C(=O)Nc1ccc(Cl)cc12 (stereo partly drawn)
22.2

Reference source: PubChem BioAssay (NCI)
